- measurement.notes: Rat pharmacokinetics, cassette dosing (IV and PO)
- Type: in vivo
- protocol.conditions: rat; male SD rats, PO 5 mg/kg, plasma; read-out: PO T½ (converted)
assay.readout: half-life
The answer should read as a number with its unit following.

- Nc1ccccc1NC(=O)c1cc2ccc(N3CCNCC3)cc2cn1 [Compound 021]: 3.2 h
- Nc1ccc(-c2ccco2)cc1NC(=O)c1cnc2cc(N3CCNCC3)ccc2c1 [Compound 024]: 4.4 h

I am curious: what half-life value has been reported for Nc1ccc(-c2ccco2)cc1NC(=O)c1ccc2nc(N3CCNCC3)ccc2c1 [Compound 003] ?
5 h

I am curious: what half-life value has been reported for Nc1ccc(-c2ccncc2)cc1NC(=O)c1ccc(N2CCNCC2)nc1 [Compound 010] ?
4.7 h

I am curious: what half-life value has been reported for Nc1ccc(-c2ccco2)cc1NC(=O)c1ccc(N2CCNCC2)nc1 [Compound 008] ?
5.6 h

I am curious: what half-life value has been reported for Nc1ccc(-c2ccncc2)cc1NC(=O)c1cnc(N2CCNCC2)s1 [Compound 032] ?
4.3 h
